Cited source: PubChem BioAssay (NCATS)

assay: HepG2 viability counterscreen (readout 1: protease activity) against the NCATS DSHEA and TCM libraries (AID 1794841); settings: qHTS concentration series; series mostly up to 27.3 µM;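 further: cells exposed to compounds for about 24 h before the protease read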
Results filed as inconclusive are left out. Activity calls are given as the source filed them. The call rests on the fitted dose curve; in most records, active means well fitted curve in the direction sought with a large enough effect; inconclusive means small, poorly fitted or top-dose-only effect, or another doubt; inactive means no such curve, though single readings can be large or run the other way.
OBSERVATION_TYPE: activity change, negative = inhibition

COMPOUND: CC[C@H](CC[C@@H](C)[C@H]1CCC2C3CCC4C[C@@H](O)CC[C@]4(C)C3CC[C@@]21C)C(C)C (stereo partly drawn)
RESULT: inactive
--
COMPOUND: C=C(C)C1CC=C(C)C(O)C1 (stereo not drawn)
RESULT: inactive
--
COMPOUND: C=C/C(C)=C/C/C=C(\C)CCC=C(C)C
RESULT: inactive
